systemUnderTest: T1, IL-17 (human IL-17) (Homo sapiens, UniProt Q16552 Q16552:24-155)
T1 sequence: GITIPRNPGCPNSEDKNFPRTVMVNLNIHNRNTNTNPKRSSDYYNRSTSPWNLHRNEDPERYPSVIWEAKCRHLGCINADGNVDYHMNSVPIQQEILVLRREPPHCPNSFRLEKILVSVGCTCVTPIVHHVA
experimentNotes: cell_activity; nucleic acid alone; IL-6 release from NIH3T3 cells
appliedConditions: chain copies: 2 inferred (homodimer)
measurementLabel: pIC50
One number for each entry, as −log10 of the molar value.

GGGUAGCCGGAGGAGTCAGTAAUCGGUACCC (mixed, 2'-OMe at 1-4,7,8,10,13,14,23-26,28-31; 2'-F at 11,17,18,27; PS at g6; DNA at A5,G9,T16,T20; rest 2'-OH RNA; no PEG) [Example sequence 4 (aptamer No. 93) nucleic acid alone]    9.91

Would you kindly look at the next entry?
Briefly, pIC50 measured for GGGUAGCCGGAGGAGTCAGTAAUCGGUACCC (mixed, 2'-OMe at 1-4,7,8,10,13,14,23-26,28; 2'-F at 11,17,18,27; PS at g6; DNA at A5,G9,T16,T20,C29-C31; rest 2'-OH RNA; no PEG) [Example sequence 1 (aptamer No. 8) nucleic acid alone] : 9.65
